system: MS2 coat protein; experiment: apparent Kd, MS2 coat protein; higher = weaker binding; RNA-MaP array; tryptophan 2.4 mM where present; conditions: designed as: OFF switch for tryptophan; no ligand
testReadout: apparent Kd (nM)

sequencerecord=UAUCGUCAGACGGCCGCCACUAGAACAUGAGGAUCACCCAUGUACGGCCGCCCGGUAUGGGUGUCUAGGACCGGGUCUGACGAAU testreadout="apparent Kd" assayresult=30.4
sequencerecord=GAGUAGAAGACGGCCGCCACUAAACAUGAGGAUCACCCAUGUCGUGAUCCGUUACCUAGAGUAGAUAGGACCGGGUCAUAUAGUC testreadout="apparent Kd" assayresult=30.4
sequencerecord=GAGGAAACUCACAUGAGGAUCACCCAUGUACGAGGACCGGUACGGCCGCCACUCGAAACCAUGGGCGGUUGUACAUGGAAACAUG testreadout="apparent Kd" assayresult=24.8
sequencerecord=AAUGUGAAGGCGGCCGCCACUGAUAAUAGACAUGAGGAUCACCCAUGUAUAAAUCCUCAAUAAGACAGGACCGGGCCAACUACGU testreadout="apparent Kd" assayresult=105
sequencerecord=AAGCUUCGCAUAGGAAAACUAUGUGAAGCUCGAGGACCGGUACGGCCGCCACUCGUCCUCAACAUGAGGAUCACCCAUGUAAUAA testreadout="apparent Kd" assayresult=22.5
sequencerecord=GAUAUGGAAACAUGUCAGAUCCUUACCGGUCGAGGACCGGUACGGCCGCCACUCGAAAAUAAUAAACAUGAGGAUCACCCAUGUA testreadout="apparent Kd" assayresult=14.4

###

system: MS2 coat protein; assay: apparent Kd, MS2 coat protein; higher = weaker binding; RNA-MaP array; conditions: ligand present: flavin mononucleotide; designed as: OFF switch for flavin mononucleotide
Entries annotated with measured apparent Kd
testReadout: apparent Kd (nM)

sequencerecord=AAAUGGACGGCAGGAUAUGGACAAGGAAUAUUACCAGAAGGGCCCUAAUGCUCAUACAUGAGGAUCACCCAUGUUGUAAUCAAU testreadout="apparent Kd" assayresult=12.7
sequencerecord=CGCGUGUUCGAGGAUAUGGAACUGAUAUUAGACCCAGAAGGCGAGACAUGAGGAUCACCCAUGUGAGGACUAAC testreadout="apparent Kd" assayresult=53.8
sequencerecord=GACAGUUUAUAGGAUAUCGACUCGACUGGGCAUCGAGAAGGAUAAACAUGAGGAUCACCCAUGUGUGGUAGGAA testreadout="apparent Kd" assayresult=125
sequencerecord=AGCAUGGUUGGAGGAUAUUCCGCCGUAGUGCUGAAUCCCGGACAUGAGGAUCACCCAUGUGAGCGGAAGAAGGCCAAGUUGUCC testreadout="apparent Kd" assayresult=63.2

###

test system: MS2 coat protein; assay: apparent Kd, MS2 coat protein; higher = weaker binding; RNA-MaP array; FMN 200 µM where present; conditions: ligand present: flavin mononucleotide; designed as: OFF switch for flavin mononucleotide
Entries annotated with measured apparent Kd
testReadout: apparent Kd (µM)

sequencerecord=GGUACUCAAAGAGUACCAAUAUGAACAUGAGGAUCACCCAUGUAGGAUAUGCUACUCAAAGAGUAGCAGAAGGAUAUGUGUCUA unitstext=µM assayresult=0.0212
sequencerecord=ACCAUUUACUAAUUAUCUAUACAUGAGGAUCACCCAUGUUAAGAGGAUAUCAUCGUUCGCCGCGUUGAGAAGGCUUAGCAUUCG unitstext=µM assayresult=0.101
sequencerecord=CGGGCUGCUGUGAGGAUAUGCCUGUGGGUGCGUGGGUAGAAGGCACAUGAGGAUCACCCAUGUCCUGCGGCUCG unitstext=µM assayresult=0.537

###

test system: MS2 coat protein; assay: apparent Kd, MS2 coat protein; higher = weaker binding; RNA-MaP array; details: ligand present: tryptophan; designed as: OFF switch for tryptophan
testReadout: apparent Kd (nM)

sequencerecord=UAAUCGUAGGCGGCCGCCACUUUUUGGUAGUGUCCAUUGUACACUCACAUGAGGAUCACCCAUGUAAGGACCGGGCCCGCAUCAG assayresult=16.7
sequencerecord=GUUACCAUGUCGGCCGCCACUAACAAGGUUAUGGCAAGUCUACACGACAUGAGGAUCACCCAUGUUAGGACCGGGACCCAUACCC assayresult=14
sequencerecord=CCUCACGAAAUCGAUGAAAGCAUGUGGCACCGAGGACCGGUACGGCCGCCACUCGCAUCCACACAUGAGGAUCACCCAUGUAAGA assayresult=51.6
sequencerecord=AAACGCUAUGCGGCCGCCACUAAGGUUGGCGUCUAUGUCGUUUAAGACAUGAGGAUCACCCAUGUUAGGACCGGGCAUGUCCGCG assayresult=21.1
sequencerecord=UACUGUCUAACGGCCGCCACUCAGUCUCGGUUGAUUAUCUUAAGUGACAUGAGGAUCACCCAUGUGAGGACCGGGUUGUGCAUAA assayresult=136
sequencerecord=GUUUUCAAGUCGGCCGCCACUGAUACAAUCCUCACCGGUUCACAUGAGGAUCACCCAUGUUCGCUCAGGACCGGGACCUUCUGUG assayresult=108

###

test system: MS2 coat protein; test: apparent Kd, MS2 coat protein; higher = weaker binding; RNA-MaP array; FMN 200 µM where present; settings: ligand present: flavin mononucleotide; designed as: ON switch for flavin mononucleotide
testReadout: apparent Kd (nM)

sequencerecord=CUUUUAUAAUAGAAGGUAGACUUUAAGUGGAUCACCCAUGUGUUGGUACUAAGGAUAUGUAGUAACAUGAGGAUCACCCAUGUU testreadout="apparent Kd" assayresult=16.9
sequencerecord=GUAUGAUUAAGAGGAUAUAUACAACAUGAGGAUCACCCAUGUACCCGUGUAGUAGAAGGUUUGUUUUUAUAUAAUAAUAUAAUU testreadout="apparent Kd" assayresult=19.1
sequencerecord=GUUGCUAUCGGAGGAUAUUCAUACCGGAAACGGACAUGAGGAUCACCCAUGUGGCGAAAGCCAUGGGAGAAGGCCGAUAGCAAC testreadout="apparent Kd" assayresult=138
sequencerecord=UGAUCUUACAUGAGGAUCACCCAUGUAGGCCAGUAACUAACCAGAAGGCACGUAGAGUAAAACAGUGAGGAUAUGGAUGACAUA testreadout="apparent Kd" assayresult=6.32
sequencerecord=GGGUACAUCGGAGGAUAUCAUGUAAAUACAUGAGGAUCACCCAUGUCGAUGGAGACAUCGGAGAUUGAGAAGGCCGAAGUACCG testreadout="apparent Kd" assayresult=8.99
sequencerecord=ACAGAGGCUGACAUGAGGAUCACCCAUGUUAGAUUGUUAUGUCAGGAUAUUAUCUGGCAACCAGAUAAGAAGGGACCCUCUGUG testreadout="apparent Kd" assayresult=8.45

###

test system: MS2 coat protein; test: apparent Kd, MS2 coat protein; higher = weaker binding; RNA-MaP array; conditions: ligand present: flavin mononucleotide; designed as: OFF switch for flavin mononucleotide
Lab note: anything with apparent Kd at or over 40 nM counts as rule met; the rest go in rule not met.

sequencerecord=CGUCACCUAAAAGGAUAUCUACAAUACAGGAUUGCGUCUCACAUGAGGAUCACCCAUGUGUGUCCAGAGAAGGUUUCGGCACGU assignedlabel="rule not met"
sequencerecord=CUCCCUCAGUCAGGAUAUGUGUCUUCCCAACAGGACAUGAGGAUCACCCAUGUCGCAAGCAUGGGACAGAAGGGACAUGGAGCC assignedlabel="rule not met"
sequencerecord=GGGACCGCAGCGUCAUACAUGAGGAUCACCCAUGUUUUACUAAGAAGGAUUAGGAAAGUAAGCUAAUAGGAUAUUACAAGGACA assignedlabel="rule not met"
sequencerecord=UGACCGUUAAUAGGAUAUGUUCUCUUCCACAUGAGGAUCACCCAUGUAAACUAUUGUGAAACUGGACAGAAGGAUUAAACAUUG assignedlabel="rule not met"
sequencerecord=GCAAGGUUUGUAGGAUAUCGCGUGUGAUUGAACAUGAGGAUCACCCAUGUGGAGGUUCCAUUAUCCGAGAAGGACAAGACUCGA assignedlabel="rule met"
sequencerecord=CUCUCGGCAGGAUAUCGGCAGAUAAACAUGAGGAUCACCCAUGUGUUCUUAAAAUUCCGUCGAGAAGGGCCGCGAU assignedlabel="rule not met"
sequencerecord=UGACCAUGCGAGAAGGCGUACAUGAGGAUCACCCAUGUUCGUAGAACAAUCGGGUAAGCAUGGCACGAGGAUAUCGCCAAUGCC assignedlabel="rule met"
sequencerecord=UUCUACAUGAGGAUCACCCAUGUCCCUGGGACCCUUGCAUCCAGAAGGCACGACUAGAUGGUGUGUGAGGAUAUGGAGGCGCUU assignedlabel="rule met"
sequencerecord=ACGUAGGGCUAGAAGGCUCUAACAAGGUGCCCAUAAAAUAACAUGAGGAUCACCCAUGUUAGUAGAGAGGAUAUAGACUCAUGU assignedlabel="rule not met"
sequencerecord=UAUUAACAAGGAUAUACAUGAGGAUCACCCAUGUGAAACUAUUUUAUAAUAACAACAAGUAGAAGGAGUUAAAA assignedlabel="rule not met"
sequencerecord=AACAAGGAAGGAUAUACAUGAGGAUCACCCAUGUCACUAGGGCCUCCCGCUUCGCUGUGUAGAAGGACCAUGAA assignedlabel="rule not met"
sequencerecord=UCAGAAAGAUAGGACCUACAUGAGGAUCACCCAUGUUGCUGUAGAAGGUGCCGUGCCAUCGUGAGCAAGGAUAUACCGAUAUGG assignedlabel="rule not met"
sequencerecord=UCGGACCGAGGAUAUACAGUUCGUGAAGGUAAGAUACACAGACAUGAGGAUCACCCAUGUAGAAGGCGGAGUCC assignedlabel="rule not met"
sequencerecord=GUGCGCGUAAAAGGAUAUUCGGAUGAUAGAACUCGAAACUACAUGAGGAUCACCCAUGUCAAGAAGAAGAAGGUUUGGCGAAAU assignedlabel="rule not met"
sequencerecord=AAUCUCUCUGCAGGAUAUGGUCGCUGAGCUACUCCAGAAGGGCAGUGAGUAAGAUCGUCAGACAUGAGGAUCACCCAUGUAUUU assignedlabel="rule not met"
sequencerecord=AACCUACAUGAGGAUCACCCAUGUGAGGAUAUUGCGGUUCUUAGCAUGAGAACCAUACCAAGAAGGCACAGGGC assignedlabel="rule not met"
sequencerecord=UAGGAUCAAGUAGGAUAUGUAGAACGGCUUUGUACAGAAGGACUAGUACAUGAGGAUCACCCAUGUUAGGGUACCUCUAAGGCA assignedlabel="rule met"
sequencerecord=ACGAAUCCCGUUCCGUGAGGACAUGAGGAUCACCCAUGUUGCAGAAGGGCCGAGCGGAUGGCGAGGCAGGAUAUGCCACAGAUC assignedlabel="rule met"
sequencerecord=AAUGUAUGUUAGGAUAUGGCCACGGCGAGGGACCCAGAAGGAACCACAUGAGGAUCACCCAUGUAAAAUAUGGA assignedlabel="rule not met"
sequencerecord=AAUUGGAUCACAUGAGGAUCACCCAUGUCGGAAACUUUACUCAGAAGGAUGUGUACUUUUUCCACAUAGGAUAUGAGUACGACA assignedlabel="rule met"
sequencerecord=GUACACUCCACAGGAUAUGGUGUAGACCCUACGCCAGAAGGGUGCGUGGGUACAUGAGGAUCACCCAUGUUAAGUUUACAUACG assignedlabel="rule not met"
sequencerecord=GUAGAGCUCAUAGGAUAUACUCGACCGGAGGCAGUAGAAGGAUGCGUCAAAUACAUGAGGAUCACCCAUGUGAUGGUAAUCGUC assignedlabel="rule not met"
sequencerecord=AAGGCGUCAGGAUAUACGUCAUCUUCAAAUAACAUAACAAUACAUGAGGAUCACCCAUGUAGAAGGGACCAGCC assignedlabel="rule not met"
sequencerecord=GGAAGCUCCUUGAGACAUGAGGAUCACCCAUGUGCCAUUCCGAGAAGGUAGACUGGACGAGAGGCUAAGGAUAUCGGCGCGCUC assignedlabel="rule not met"
sequencerecord=AUGCAUCUAGGAUAUGCGGUGAUUUACAUGAGGAUCACCCAUGUAGACCACCGGUCUAGAGCAGAAGGAGAUGUGG assignedlabel="rule not met"
sequencerecord=AUAUUUUCAGGAUAUCAACUUCACUACAUGAGGAUCACCCAUGUCCUCUAUUGUUUACUGUGAGAAGGGAAAGAGA assignedlabel="rule met"
sequencerecord=AAAUGUGUAUAGGAUAUCUUGACCCACGCAUUCAGAGAAGGAUACACAUGAGGAUCACCCAUGUUGAGACGGAA assignedlabel="rule met"
sequencerecord=CCGAAUCAAACUGAUAGUCUACAUGAGGAUCACCCAUGUGAAAAGGAUAUCUUUUGAACUGACGAAGAGAAGGUUUUAGAGGGU assignedlabel="rule not met"
sequencerecord=UAAAUCGAAGGAUAUACAUGUACAAGUAUCCGUCAAAGAGCACAUGAGGAUCACCCAUGUAGAAGGUCGACUAA assignedlabel="rule met"
